Data credit: patent US11891359B2

Assay: Solubility in the one-pot biocatalysis reaction mixture
Type: physicochemical
Settings: undiluted one-pot biocatalysis reaction mixture (5 mL), 30 °C, aqueous buffer; undiluted 5 mL reaction (25 mM Tris-HCl pH 8.0); dilution to 40 mL and pH 6 increased solubility
Procedure: Referring further to FIG. 13A, Step 1 was conducted in vitro using biocatalytic conversion. Three recombinant enzymes, the prenyl transferase PriB (SEQ.ID NO: 24), in addition to PhoNxt (SEQ.ID NO: 30), and IPKmt (SEQ.ID NO: 32) were individually expressed in E. coli using the following plasmids, respectively: pET26b(+)-PriB, pET28a(+)-IPKmt, and pET21(+)-PhoNxt. […]
assay.endpoint: solubility

Determine its reported solubility: CC(C)=CCc1ccc2c(C[C@H](N)C(=O)O)c[nH]c2c1 [6-dimethylallyl-tryptophan]
< 1100 µg/mL
